# assayed_target: T1, CD3 expressed on cell-surface of primary human T cells (human, UniProt P07766 23-207; P04234 22-171)
# T1 construct: also called cell-surface CD3; human CD3
# T1 sequence (P07766 23-207 limits assumed, chain 1 of 2): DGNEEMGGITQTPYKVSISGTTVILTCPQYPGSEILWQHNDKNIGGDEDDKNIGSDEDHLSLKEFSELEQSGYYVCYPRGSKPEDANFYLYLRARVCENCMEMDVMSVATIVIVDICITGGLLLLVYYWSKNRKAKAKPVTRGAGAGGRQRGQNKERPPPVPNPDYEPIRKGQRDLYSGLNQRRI
# T1 sequence (P04234 22-171 limits assumed, chain 2 of 2): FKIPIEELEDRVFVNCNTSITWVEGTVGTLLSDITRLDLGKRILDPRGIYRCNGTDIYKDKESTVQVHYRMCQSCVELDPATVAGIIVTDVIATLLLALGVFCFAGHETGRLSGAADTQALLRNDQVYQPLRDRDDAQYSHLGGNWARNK
# assay_remarks: flow cytometry competition vs murine SP34-AF488 on human T cells, average
Would you kindly list IC50 for each of these binders?
State just the number; it will be interpreted in µg/mL.

## Task Reported IC50 for huSP34.3.4 Fab-HF (Fab, V domains shown) VH: EVQLVESGGGLVQPGGSLRLSCAASGFTFNTYAMNWVRQAPGKGLEWVGRIRSKYNNYATYYADSVKGRFTISRDDSKNSLYLQMNSLRTEDTAVYYCVRHGNFGHSYVSWFAYWGQGTLVTVSS VL: QAVVTQEPSLTVSPGGTVTLTCGSSTGAVTTSHYANWVQQKPGQAPRGLIGGTSKRAPWTPARFSGSLLGGKAALTLSGAQPEDEAEYYCALWYSALWVFGGGTKLTVL : what is it?
## Result 17.3

## Task Reported IC50 for huSP34.3.6 Fab-HF (Fab, V domains shown) VH: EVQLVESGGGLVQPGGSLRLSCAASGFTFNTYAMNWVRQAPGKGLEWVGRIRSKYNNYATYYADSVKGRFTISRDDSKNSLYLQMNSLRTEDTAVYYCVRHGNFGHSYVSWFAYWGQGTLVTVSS VL: QAVVTQPPSLTVSPGGTVTLTCGSSTGAVTTGHYANWVQQKPGQAPRGLIGGTSNRAPGVPARFSGSLSGGKAALTISGAQPEDEAEYYCALWYSARWVFGGGTKLTVL : what is it?
## Result 4.75

## Task Reported IC50 for huSP34.4.6 Fab-HF (Fab, V domains shown) VH: EVQLVESGGGLVQPGGSLRLSCAASGFTFSTYAMNWVRQAPGKGLEWVGRIRSKYNNYATYYAASVKGRFTISRDDSKNSLYLQMNSLRTEDTAVYYCVRHGNFGHSYVSWFAVWGQGTLVTVSS VL: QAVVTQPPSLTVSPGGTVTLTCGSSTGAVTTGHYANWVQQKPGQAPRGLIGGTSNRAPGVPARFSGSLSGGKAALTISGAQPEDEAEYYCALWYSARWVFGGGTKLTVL : what is it?
## Result 11.4

## Task Reported IC50 for huSP34.3.5 Fab-HF (Fab, V domains shown) VH: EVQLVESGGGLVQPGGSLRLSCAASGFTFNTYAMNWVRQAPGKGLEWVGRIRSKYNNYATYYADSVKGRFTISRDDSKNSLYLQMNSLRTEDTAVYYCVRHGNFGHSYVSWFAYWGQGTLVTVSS VL: QAVVTQEPSLTVSPGGTVTLTCGSSTGAVTTGHYANWVQQKPGQAPRGLIGGTSNRAPWTPARFSGSLLGGKAALTLSGAQPEDEAEYYCALWYSARWVFGGGTKLTVL : what is it?
## Result 11.4
